# TARGET: AChE (Homo sapiens)
# Construct: purchased Bioassays System (BioAssay Systems) IACE-100
# Sequence (P22303 32-614): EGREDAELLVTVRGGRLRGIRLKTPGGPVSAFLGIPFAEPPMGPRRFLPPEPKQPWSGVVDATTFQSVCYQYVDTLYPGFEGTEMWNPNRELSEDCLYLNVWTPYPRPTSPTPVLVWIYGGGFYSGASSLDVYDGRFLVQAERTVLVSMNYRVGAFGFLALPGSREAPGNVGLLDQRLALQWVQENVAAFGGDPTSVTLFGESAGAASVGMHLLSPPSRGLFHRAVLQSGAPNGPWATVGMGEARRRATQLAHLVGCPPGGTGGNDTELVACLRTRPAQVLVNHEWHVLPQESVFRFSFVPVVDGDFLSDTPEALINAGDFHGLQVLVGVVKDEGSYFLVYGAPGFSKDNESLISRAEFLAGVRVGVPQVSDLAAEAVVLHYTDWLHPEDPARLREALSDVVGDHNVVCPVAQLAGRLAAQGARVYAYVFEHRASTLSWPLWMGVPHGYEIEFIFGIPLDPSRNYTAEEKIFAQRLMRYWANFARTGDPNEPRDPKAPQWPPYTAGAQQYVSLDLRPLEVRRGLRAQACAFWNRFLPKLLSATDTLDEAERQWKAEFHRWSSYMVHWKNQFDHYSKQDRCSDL
# EXPERIMENT_SUMMARY: In vitro AChE inhibition assay (improved Ellman spectrophotometric method)
# Type: biochemical
EXPERIMENTAL_ENDPOINT: pIC50
On this scale, pIC50 is minus log10 of a concentration expressed in M (mol/L).

INPUT: Need pIC50 of C[Si]1(Cl)C=CC(=O)C1=P(c1ccccc1)(c1ccccc1)c1ccccc1 (stereo not drawn) [5b] , thanks.
OUTPUT: 6.46

INPUT: Need pIC50 of C[Si]1(Cl)C=C/C(=N\c2ccccc2)C1=P(c1ccccc1)(c1ccccc1)c1ccccc1 (stereo not drawn) [C00001] , thanks.
OUTPUT: 6.69

INPUT: Need pIC50 of CCc1c(CC)/c(=N/c2ccccc2)c1=P(c1ccccc1)(c1ccccc1)c1ccccc1 [C00006] , thanks.
OUTPUT: 6.29

INPUT: Need pIC50 of C=CC(C(=O)OC)=P(c1ccccc1)(c1ccccc1)c1ccccc1 [8b] , thanks.
OUTPUT: 6.80

INPUT: Need pIC50 of CCc1c(CC)c(=P(c2ccccc2)(c2ccccc2)c2ccccc2)c1=O [13b] , thanks.
OUTPUT: 6.60

INPUT: Need pIC50 of C=CC(C(C)=O)=P(c1ccccc1)(c1ccccc1)c1ccccc1 [8c] , thanks.
OUTPUT: 7.01

INPUT: Need pIC50 of C[Si]1(Cl)C=CC(=Nc2ccccc2)C1=P(c1ccccc1)(c1ccccc1)c1ccccc1 (stereo not drawn) [5a] , thanks.
OUTPUT: 6.69

INPUT: Need pIC50 of C=CC(C(=O)c1ccccc1)=P(c1ccccc1)(c1ccccc1)c1ccccc1 [8d] , thanks.
OUTPUT: 6.37

INPUT: Need pIC50 of c1ccc(/N=c2/c(-c3ccccc3)c(-c3ccccc3)c2=P(c2ccccc2)(c2ccccc2)c2ccccc2)cc1 [C00002] , thanks.
OUTPUT: 6.73

INPUT: Need pIC50 of c1ccc(N=c2c(-c3ccccc3)c(-c3ccccc3)c2=P(c2ccccc2)(c2ccccc2)c2ccccc2)cc1 [11a] , thanks.
OUTPUT: 6.73

INPUT: Need pIC50 of C[Si](C)(C)c1c([Si](C)(C)C)c(=P(c2ccccc2)(c2ccccc2)c2ccccc2)c1=O [compound 15] , thanks.
OUTPUT: 6.95

INPUT: Need pIC50 of O=c1c(-c2ccccc2)c(-c2ccccc2)c1=P(c1ccccc1)(c1ccccc1)c1ccccc1 [11b] , thanks.
OUTPUT: 6.29
